Where do these numbers come from? They come from the supplement of paper PMC6555819.

System: VDR homodimer (NR concentration 270 nM)
Assay: PBM binding z-score (relative to random genomic background probes); higher = stronger binding; sequences stand for … in GC…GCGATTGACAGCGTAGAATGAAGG
MEASUREMENT_KIND: PBM binding z-score

Past entries and their recorded results:
[[record]]
sequence_record = "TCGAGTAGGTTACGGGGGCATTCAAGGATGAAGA"
experimental_system = "VDR homodimer (NR concentration 270 nM)"
measurement_kind = "PBM binding z-score"
assay_value = 2.77

[[record]]
sequence_record = "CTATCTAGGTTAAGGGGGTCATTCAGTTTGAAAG"
experimental_system = "VDR homodimer (NR concentration 270 nM)"
measurement_kind = "PBM binding z-score"
assay_value = 7.21

[[record]]
sequence_record = "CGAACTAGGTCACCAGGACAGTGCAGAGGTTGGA"
experimental_system = "VDR homodimer (NR concentration 270 nM)"
measurement_kind = "PBM binding z-score"
assay_value = 0.862


For every item below, please supply its PBM binding z-score.
1. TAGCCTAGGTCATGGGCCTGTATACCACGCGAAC
2. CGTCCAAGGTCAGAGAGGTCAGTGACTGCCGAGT
3. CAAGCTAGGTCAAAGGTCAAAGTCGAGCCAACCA
4. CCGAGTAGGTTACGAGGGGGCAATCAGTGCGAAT
5. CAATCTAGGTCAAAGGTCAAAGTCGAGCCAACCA

Result block:
1. 0.584
2. 5.42
3. 3.39
4. 2.8
5. 2.73

Batch request: PBM binding z-score for each of the following sequences.
1. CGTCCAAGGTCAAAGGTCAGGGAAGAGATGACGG
2. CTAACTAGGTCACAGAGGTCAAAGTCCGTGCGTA
3. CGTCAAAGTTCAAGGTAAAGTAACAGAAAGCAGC
4. ATCGAAAGGTCGTGAGGTGAGTTTACAGAAAGGC

Result block:
1: 3.13; 2: 7.07; 3: 2.89; 4: 3.12

###

Tested on: FXR:RXRa (NR concentration 270 nM, RXRa partner concentration 90 nM)
Experiment: PBM binding z-score (relative to random genomic background probes); higher = stronger binding; sequences stand for … in GC…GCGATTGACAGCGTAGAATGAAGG
MEASUREMENT_KIND: PBM binding z-score

Check out these entries, answers already filled in.
[[record]]
sequence_record = "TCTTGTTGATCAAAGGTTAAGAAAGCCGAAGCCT"
measurement_kind = "PBM binding z-score"
assay_value = 1.37

[[record]]
sequence_record = "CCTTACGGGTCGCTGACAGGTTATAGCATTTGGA"
measurement_kind = "PBM binding z-score"
assay_value = 0.72

[[record]]
sequence_record = "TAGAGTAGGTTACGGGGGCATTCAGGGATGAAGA"
measurement_kind = "PBM binding z-score"
assay_value = 2.76

[[record]]
sequence_record = "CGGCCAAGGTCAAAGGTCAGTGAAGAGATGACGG"
measurement_kind = "PBM binding z-score"
assay_value = 8.62

[[record]]
sequence_record = "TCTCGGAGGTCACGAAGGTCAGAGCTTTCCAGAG"
measurement_kind = "PBM binding z-score"
assay_value = 7.49


State the recorded PBM binding z-score for every item in the following list.
1. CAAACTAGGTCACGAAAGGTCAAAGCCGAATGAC
2. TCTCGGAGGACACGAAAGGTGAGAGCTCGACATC

Result block:
[7.72, 0.988]
